System: NCI-H929 complex spheroids, viability % test/control
Assay: Anticancer human tumor NCI-H929 cell line growth inhibition [RAS];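 also: compound exposure lasted seven days before viability was read; 100% = DMSO vehicle control viability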
Conditions: second compound 0.0316 µM; first compound 0.316 µM; hits give low values
READOUT: viability, T/C (%)
Write the value in % as a bare number.

Record excerpt, results attached:
* CC(C)NCC(C(=O)N1CCN(c2ncnc3c2C(C)CC3O)CC1)c1ccc(Cl)cc1 (stereo not drawn) + C=CC(=O)N1CCN(c2nc(OCC3CCCN3C)nc3c(F)c(-c4nc(N)cc(C)c4C(F)(F)F)c(Cl)cc23)C(C)C1 | 108
* C=CC(=O)Nc1cc(Nc2nccc(-c3cn(C)c4ccccc34)n2)c(OC)cc1N(C)CCN(C)C + C=CC(=O)N1CCN(c2nc(OCC3CCCN3C)nc3c(F)c(-c4nc(N)cc(C)c4C(F)(F)F)c(Cl)cc23)C(C)C1 | 103
* CC1(O)CCCC1n1c(=O)c(C(F)F)cc2cnc(NC3CCN(S(C)(=O)=O)CC3)nc21 (stereo not drawn) + C#Cc1c(F)ccc2cc(O)cc(-c3ncc4c(N5CC6CCC(C5)N6)nc(OCC56CCCN5CC(F)C6)nc4c3F)c12 | 5.76
* CCN1CCN(Cc2ccc(Nc3ncc(F)c(-c4cc(F)c5nc(C)n(C(C)C)c5c4)n3)nc2)CC1 + C=CC(=O)N1CCN(c2nc(OCC3CCCN3C)nc3c(F)c(-c4nc(N)cc(C)c4C(F)(F)F)c(Cl)cc23)C(C)C1 | 119
* CC1(O)CCCC1n1c(=O)c(C(F)F)cc2cnc(NC3CCN(S(C)(=O)=O)CC3)nc21 (stereo not drawn) + C=CC(=O)N1CCN(c2nc(OCC3CCCN3C)nc3c(F)c(-c4nc(N)cc(C)c4C(F)(F)F)c(Cl)cc23)C(C)C1 | 3.77
* NC1c2ccccc2OC12CCN(c1cnc3c(N4CCCc5ncccc54)n[nH]c3n1)CC2 (stereo not drawn) + C#Cc1c(F)ccc2cc(O)cc(-c3ncc4c(N5CC6CCC(C5)N6)nc(OCC56CCCN5CC(F)C6)nc4c3F)c12 | 104
* O=C(c1ccc(F)c(F)c1Nc1ccc(I)cc1F)N1CC(O)([C@@H]2CCCCN2)C1 + C=CC(=O)N1CCN(c2nc(OCC3CCCN3C)nc3c(F)c(-c4nc(N)cc(C)c4C(F)(F)F)c(Cl)cc23)C(C)C1 | 112
* CC(Nc1ccc2c(c1)OCCn1cc(N3C(=O)OCC3C(F)F)nc1-2)C(N)=O (stereo not drawn) + C=CC(=O)N1CCN(c2nc(OCC3CCCN3C)nc3c(F)c(-c4nc(N)cc(C)c4C(F)(F)F)c(Cl)cc23)C(C)C1 | 111

[in] Dear colleague, I am looking for the recorded viability, T/C of the following molecule: Cc1nc(N2CCC3(CC2)COC(C)C3N)c(CO)nc1Sc1ccnc(N)c1Cl (stereo not drawn) + C#Cc1c(F)ccc2cc(O)cc(-c3ncc4c(N5CC6CCC(C5)N6)nc(OCC56CCCN5CC(F)C6)nc4c3F)c12
[out] 98

[in] Given the molecule CC(=O)OC12COC1CC(O)C1(C)C(=O)C(O)C3=C(C)C(OC(=O)C(O)C(NC(=O)OC(C)(C)C)c4ccccc4)CC(O)(C(OC(=O)c4ccccc4)C21)C3(C)C (stereo not drawn) + C=CC(=O)N1CCN(c2nc(OCC3CCCN3C)nc3c(F)c(-c4nc(N)cc(C)c4C(F)(F)F)c(Cl)cc23)C(C)C1 , what is its reported viability, T/C?
[out] 1.31

[in] viability, T/C lookup needed for C[C@@H](NC(=O)c1ncnc(N)c1Cl)c1ncc(C(=O)Nc2cc(C(F)(F)F)c(Cl)cn2)s1 + C#Cc1c(F)ccc2cc(O)cc(-c3ncc4c(N5CC6CCC(C5)N6)nc(OCC56CCCN5CC(F)C6)nc4c3F)c12 , thanks.
[out] 93.6
